Reported PBM E-score by item:
Target: Cin5 (UniProt P40917)
Sequence: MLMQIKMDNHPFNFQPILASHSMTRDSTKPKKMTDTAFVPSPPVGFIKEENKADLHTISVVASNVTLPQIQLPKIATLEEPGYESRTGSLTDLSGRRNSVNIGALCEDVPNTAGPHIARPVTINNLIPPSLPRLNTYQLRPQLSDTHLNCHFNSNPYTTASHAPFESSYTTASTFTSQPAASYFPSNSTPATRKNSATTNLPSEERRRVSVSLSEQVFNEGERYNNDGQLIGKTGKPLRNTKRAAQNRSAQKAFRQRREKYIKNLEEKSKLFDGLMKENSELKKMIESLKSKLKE
Test: PBM E-score (8-mer binding enrichment) (E-score (-0.5 to 0.5)); higher = stronger / more preferred TF binding
Conditions: protein concentration: 100 nM; construct: GST-full length
Whole data set: some 33,000 sequences, median “E-score (-0.5 to 0.5)” near -0.0059, cut for the highest 2% near 0.26. Only a selection was taken, and the highest values are over-represented in it overall.
Answer with a bare number; do not write a unit.

For orientation, consider the following solved cases.
GTAGAACA    -0.165
GATAATCC    0.17

Could you now look at the following sequence, please?
Task item: // fetch PBM E-score given entry CATATTGA
Reply: 0.0883
